- run-description: yeast display, Sf9 membrane polyspecificity reagent, FACS + sequencing; frameworks hold sequencing errors
quantity-name: polyreactivity (PSR sort gate)

Use the examples below as a reference point.
Please fill in: polyreactivity (PSR sort gate) reported for QVQLVESGGGLVQAGGSLRLSCAASGSTFGVNTMGWYRQAPGKERELVAAITSRGGSTYYADSVKGRFTISRDNAKNTVYLQMNSLKPEDTAVYYCAAEASYYRIRRYYWGQGTQVTVSS = high polyreactivity

Entry QVQLVESGGGLVQAGGRLRLSCAASGFIFTDNGMGWYRQAPGKERELVAAINSDGSTYYADSVKGRFTISRDNAKNTVYLQMNSLKPEATAVYYCAVDGSITEIYLPGYGYGYWGQGTQVTVSS , polyreactivity (PSR sort gate) reported as low polyreactivity

In plain terms, QVQLVESGGGLVQAGGSLRLSCAASGSTSERYDMGWYRQAPGKERELVATITWSGGDTHYADSVKGRFTISRDNAKNTVYLQMNSLKPVDTAVYYCAAEYTFVWGLWYDYWGQGTQVTVSS has a documented polyreactivity (PSR sort gate) of low polyreactivity

Measured polyreactivity (PSR sort gate), QVQLVESGGGLVQAGGSLRLSCAASGSTFAYYARGWYRQAPGKERELVASISWRGGSTYYADSVKGRFTISRDNAKNTVYLQMNSLKPEDTAFYYCAAGRFYKWSRSQEYDYWGQGTQVTVSS : low polyreactivity

The sequence listed as QVQLVESGGGLVQAGGSLRLSCAASGYTFSFYAMGWYRQATGKERELVADISRSGGSTYYADSVKGRFTISRDNAKNTVYLQMNSQKPEDTAVYYCAARWPGAYHEYGYLGQGTQVTVSS shows polyreactivity (PSR sort gate) equal to high polyreactivity

New cases:
// recorded polyreactivity (PSR sort gate) for QVQLVESGGGLVQAGGSLRLSCAASGRTIRRYAMGWYRQAPGKERELVAAISYSGGSTYYADSVKGRFTISRDNAKNTVYLQMNSLKPEDTAVYYCAARYLGKKYYYWGQGTQVTVSS : high polyreactivity

Measured polyreactivity (PSR sort gate) of QVQLVESGGGLVQAGGSLRLSCAASGRPSSLMNMGWYRQAPGKERELVAAISTSGGSTYYADSVKGRFTISRDNAKNTVYLQMNSLKPEDTAVYYCAATIGRRSYNQMYYWGQGTQVTVSS : high polyreactivity

Query QVQLVESGGGLVQAGGSLRLSCAASGIIFIVNAMGWYRQAPGKERELVAAISNGGSTNYADSVKGRFTISRDNAKNTVYLQMNSLKPEDTAVYYCAADDEGWWVTNYDYWGQGTQVTVSS yields polyreactivity (PSR sort gate) of low polyreactivity

The measured polyreactivity (PSR sort gate) associated with QVQLVESGGGLVQAGGSLRLSCYASGGTFRWYAMGWSRQAPGKERELVAAISYSGGPTYADSVKGRFTISRDNAKNTVYLQMNSLKPEDTAVYYCNAVRYITHYDYWGQGTQVTVSS reads high polyreactivity

sequence QVQLVESGGGLVQAGGSLRLSCAASGLILDGNVMGWYRQAPGKERELVAAINTSGGSTYYADSVKGRFTISRDNAKNTVYLQMNSLKPEDTAVYYCAARYPSDYDYWGQGTQVTVSS , polyreactivity (PSR sort gate) observed: low polyreactivity

// recorded polyreactivity (PSR sort gate) for QVQLVESGGGLVQAGGSLRLSCAASGRIFYNYAMGWYRQAPGKERELVAAITGGASTYADSVKGRFTISRDNAKNTVYLQMNRLKPEDTAVYYCAVDYYTYSLASGRTRMDYWGQGTQVTVSS : high polyreactivity
